- testMethodNotes: Ex vivo biodistribution in mice with MM1S tumor xenografts
- measurementContext: both sexes, NSG, mouse, large intestine (with contents), 80 µCi, 5 min p.i.; MM1S xenograft mice; read-out: uptake in large intestine (with contents)
assayMetric: tissue uptake at 5 min (%ID/g)
One number for each entry, in %ID/g.

Request: Value lookup for tissue uptake at 5 min; key = CC[C@H](C)[C@@H]1NC(=O)[C@@H]2CCCN2C(=O)[C@H](Cc2ccccc2)NC(=O)[C@H](CC(=O)O)NC(=O)[C@H](C)NC(=O)[C@@H]2CSCc3cc(cc(c3)CSC[C@H](NC(=O)[C@H](C)NC(=O)CCOCCOCCOCCNC(=O)CN3CCN(CC(=O)O)CCN(CC(=O)O)CC3)C(=O)N[C@@H](C(C)C)C(=O)N3CCC[C@H]3C(=O)N2)CSC[C@@H](C(N)=O)NC(=O)[C@H](Cc2ccc(O)cc2)NC(=O)[C@H](Cc2c[nH]c3ccccc23)NC1=O [[^68Ga]Ga‐AJ206, metal not drawn]
Result: 3.11

----------
- testMethodNotes: Ex vivo biodistribution in mice with U266 tumor xenografts
- measurementContext: both sexes, NSG, mouse, blood, 50 µCi; 60 min p.i.; U266 xenograft mice; read-out: uptake in blood
assayMetric: tissue uptake at 1 h
In your response, put the unit directly after the numeric value.

Request: Which tissue uptake at 1 h value belongs to CC[C@H](C)[C@@H]1NC(=O)[C@@H]2CCCN2C(=O)[C@H](Cc2ccccc2)NC(=O)[C@H](CC(=O)O)NC(=O)[C@H](C)NC(=O)[C@@H]2CSCc3cc(cc(c3)CSC[C@H](NC(=O)[C@H](C)NC(=O)CCOCCOCCOCCNC(=O)CN3CCN(CC(=O)O)CCN(CC(=O)O)CC3)C(=O)N[C@@H](C(C)C)C(=O)N3CCC[C@H]3C(=O)N2)CSC[C@@H](C(N)=O)NC(=O)[C@H](Cc2ccc(O)cc2)NC(=O)[C@H](Cc2c[nH]c3ccccc23)NC1=O [[^68Ga]Ga‐AJ206, metal not drawn] ?
Result: 0.32 %ID/g

----------
- testMethodNotes: Ex vivo biodistribution in mice with RPMI tumor xenografts
- measurementContext: both sexes, NSG, mouse, tumor/blood, 50 uCi, total radioactivity; 60 min p.i.; RPMI xenograft mice; read-out: Tumor/Blood ratio
assayMetric: tissue to tissue ratio at 1 h
Numbers only.

Request: Can you look up the measured tissue to tissue ratio at 1 h of CC[C@H](C)[C@@H]1NC(=O)[C@@H]2CCCN2C(=O)[C@H](Cc2ccccc2)NC(=O)[C@H](CC(=O)O)NC(=O)[C@H](C)NC(=O)[C@@H]2CSCc3cc(cc(c3)CSC[C@H](NC(=O)[C@H](C)NC(=O)CCOCCOCCOCCNC(=O)CN3CCN(CC(=O)O)CCN(CC(=O)O)CC3)C(=O)N[C@@H](C(C)C)C(=O)N3CCC[C@H]3C(=O)N2)CSC[C@@H](C(N)=O)NC(=O)[C@H](Cc2ccc(O)cc2)NC(=O)[C@H](Cc2c[nH]c3ccccc23)NC1=O [[^68Ga]Ga‐AJ206, metal not drawn] for me?
Result: 2.69

----------
- testMethodNotes: Ex vivo biodistribution in mice with MM1S tumor xenografts
- measurementContext: both sexes, NSG, mouse, thymus, 80 µCi, total radioactivity, 30 min p.i.; MM1S xenograft mice; read-out: uptake in thymus
assayMetric: tissue uptake at 0.5 h (%ID/g)
Give bare numbers, in %ID/g.

Request: So what does the record say about tissue uptake at 0.5 h for CC[C@H](C)[C@@H]1NC(=O)[C@@H]2CCCN2C(=O)[C@H](Cc2ccccc2)NC(=O)[C@H](CC(=O)O)NC(=O)[C@H](C)NC(=O)[C@@H]2CSCc3cc(cc(c3)CSC[C@H](NC(=O)[C@H](C)NC(=O)CCOCCOCCOCCNC(=O)CN3CCN(CC(=O)O)CCN(CC(=O)O)CC3)C(=O)N[C@@H](C(C)C)C(=O)N3CCC[C@H]3C(=O)N2)CSC[C@@H](C(N)=O)NC(=O)[C@H](Cc2ccc(O)cc2)NC(=O)[C@H](Cc2c[nH]c3ccccc23)NC1=O [[^68Ga]Ga‐AJ206, metal not drawn] ?
Result: 2.67

----------
- testMethodNotes: Ex vivo biodistribution in mice with MM1S tumor xenografts
- measurementContext: both sexes, NSG, mouse, stomach (with contents), 80 µCi, 120 min p.i.; MM1S xenograft mice; read-out: uptake in stomach (with contents)
assayMetric: tissue uptake at 2 h (%ID/g)
Numbers only, in %ID/g.

Request: Query: tissue uptake at 2 h; subject: CC[C@H](C)[C@@H]1NC(=O)[C@@H]2CCCN2C(=O)[C@H](Cc2ccccc2)NC(=O)[C@H](CC(=O)O)NC(=O)[C@H](C)NC(=O)[C@@H]2CSCc3cc(cc(c3)CSC[C@H](NC(=O)[C@H](C)NC(=O)CCOCCOCCOCCNC(=O)CN3CCN(CC(=O)O)CCN(CC(=O)O)CC3)C(=O)N[C@@H](C(C)C)C(=O)N3CCC[C@H]3C(=O)N2)CSC[C@@H](C(N)=O)NC(=O)[C@H](Cc2ccc(O)cc2)NC(=O)[C@H](Cc2c[nH]c3ccccc23)NC1=O [[^68Ga]Ga‐AJ206, metal not drawn]
Result: 0.47

----------
- testMethodNotes: Ex vivo biodistribution in mice with U266 tumor xenografts
- measurementContext: both sexes, NSG, mouse, liver, 50 µCi; 60 min p.i.; U266 xenograft mice; read-out: uptake in liver
assayMetric: tissue uptake at 1 h (%ID/g)
Numbers only, in %ID/g.

Request: What value of measured tissue uptake at 1 h is listed for CC[C@H](C)[C@@H]1NC(=O)[C@@H]2CCCN2C(=O)[C@H](Cc2ccccc2)NC(=O)[C@H](CC(=O)O)NC(=O)[C@H](C)NC(=O)[C@@H]2CSCc3cc(cc(c3)CSC[C@H](NC(=O)[C@H](C)NC(=O)CCOCCOCCOCCNC(=O)CN3CCN(CC(=O)O)CCN(CC(=O)O)CC3)C(=O)N[C@@H](C(C)C)C(=O)N3CCC[C@H]3C(=O)N2)CSC[C@@H](C(N)=O)NC(=O)[C@H](Cc2ccc(O)cc2)NC(=O)[C@H](Cc2c[nH]c3ccccc23)NC1=O [[^68Ga]Ga‐AJ206, metal not drawn] ?
Result: 0.78

----------
- testMethodNotes: Ex vivo biodistribution in mice with MM1S tumor xenografts
- measurementContext: both sexes, NSG, mouse, kidney, 2 mg/kg, 60 min p.i.; MM1S xenograft mice with blocking dose (2 mg kg^−1 AJ206); read-out: uptake in kidney
assayMetric: tissue uptake at 1 h (%ID/g)
Answers are plain numbers, in %ID/g.

Request: Consider the compound shown here: CC[C@H](C)[C@@H]1NC(=O)[C@@H]2CCCN2C(=O)[C@H](Cc2ccccc2)NC(=O)[C@H](CC(=O)O)NC(=O)[C@H](C)NC(=O)[C@@H]2CSCc3cc(cc(c3)CSC[C@H](NC(=O)[C@H](C)NC(=O)CCOCCOCCOCCNC(=O)CN3CCN(CC(=O)O)CCN(CC(=O)O)CC3)C(=O)N[C@@H](C(C)C)C(=O)N3CCC[C@H]3C(=O)N2)CSC[C@@H](C(N)=O)NC(=O)[C@H](Cc2ccc(O)cc2)NC(=O)[C@H](Cc2c[nH]c3ccccc23)NC1=O [[^68Ga]Ga‐AJ206, metal not drawn] What is its recorded tissue uptake at 1 h?
Result: 15.9

----------
- testMethodNotes: Ex vivo biodistribution in mice with MM1S tumor xenografts
- measurementContext: both sexes, NSG, mouse, tumor, 80 µCi, total radioactivity, 90 min p.i.; MM1S xenograft mice; read-out: uptake in tumor
assayMetric: tissue uptake at 1.5 h (%ID/g)
Give bare numbers, in %ID/g.

Request: Name the recorded tissue uptake at 1.5 h for CC[C@H](C)[C@@H]1NC(=O)[C@@H]2CCCN2C(=O)[C@H](Cc2ccccc2)NC(=O)[C@H](CC(=O)O)NC(=O)[C@H](C)NC(=O)[C@@H]2CSCc3cc(cc(c3)CSC[C@H](NC(=O)[C@H](C)NC(=O)CCOCCOCCOCCNC(=O)CN3CCN(CC(=O)O)CCN(CC(=O)O)CC3)C(=O)N[C@@H](C(C)C)C(=O)N3CCC[C@H]3C(=O)N2)CSC[C@@H](C(N)=O)NC(=O)[C@H](Cc2ccc(O)cc2)NC(=O)[C@H](Cc2c[nH]c3ccccc23)NC1=O [[^68Ga]Ga‐AJ206, metal not drawn] .
Result: 1.6

----------
- testMethodNotes: Ex vivo biodistribution in mice with MM1S tumor xenografts
- measurementContext: both sexes, NSG, mouse, blood, 80 µCi, total radioactivity, 30 min p.i.; MM1S xenograft mice; read-out: uptake in blood
assayMetric: tissue uptake at 0.5 h (%ID/g)
Answers are plain numbers, in %ID/g.

Request: Request the reported tissue uptake at 0.5 h associated with CC[C@H](C)[C@@H]1NC(=O)[C@@H]2CCCN2C(=O)[C@H](Cc2ccccc2)NC(=O)[C@H](CC(=O)O)NC(=O)[C@H](C)NC(=O)[C@@H]2CSCc3cc(cc(c3)CSC[C@H](NC(=O)[C@H](C)NC(=O)CCOCCOCCOCCNC(=O)CN3CCN(CC(=O)O)CCN(CC(=O)O)CC3)C(=O)N[C@@H](C(C)C)C(=O)N3CCC[C@H]3C(=O)N2)CSC[C@@H](C(N)=O)NC(=O)[C@H](Cc2ccc(O)cc2)NC(=O)[C@H](Cc2c[nH]c3ccccc23)NC1=O [[^68Ga]Ga‐AJ206, metal not drawn]
Result: 2.95
